# test_system: CDK12 (Homo sapiens)
# assay_protocol: Western blot degradation of CDK12 (Example 2)
# Type: cell-based
# Parameters: degradation of CDK12/13 protein in leukemia cells KASUMI-1, MV4-11, and Jurkat; endogenous in cells
# condition_parameters: DC50 classes; cell line not given; read-out: CDK12 degradation Activity
Measured DC50 values are reported for all entries that follow.

Check out these entries, answers already filled in.
Cc1ncsc1-c1ccc([C@H](C)NC(=O)[C@@H]2C[C@@H](O)CN2C(=O)[C@@H](NC(=O)COCCOCCOCCOCCOCCn2cc(-c3ccc(N(C(=O)NCc4ccccc4)[C@H]4CC[C@H](Nc5ccc(C#N)cn5)CC4)cc3)ccc2=O)C(C)(C)C)cc1 [Formula 60]    1000 to 3000 nM
N#Cc1ccc(N[C@H]2CC[C@H](N(C(=O)NCc3ccccc3)c3ccc(N4CCN(CCOCCOCCNc5cccc6c5C(=O)N(C5CCC(=O)NC5=O)C6=O)CC4)cc3)CC2)nc1 (stereo partly shown) [Formula 39]    1000 to 3000 nM
CCNC(=O)N(c1ccc(-c2ccc(N3CCN(CC(=O)N[C@H](C(=O)N4C[C@H](O)C[C@H]4C(=O)N[C@@H](C)c4ccc(-c5scnc5C)cc4)C(C)(C)C)CC3)nc2)cc1)[C@H]1CC[C@H](Nc2ccc(C#N)cn2)CC1 [Formula 44]    500 to 1000 nM

// recorded DC50 for Cc1ncsc1-c1ccc([C@H](C)NC(=O)[C@@H]2C[C@@H](O)CN2C(=O)[C@@H](NC(=O)COCCOc2ccc(-c3ccc4c(c3)CN(Cc3ccccc3)C(=O)N4[C@H]3CC[C@H](Nc4ccc(C#N)cn4)CC3)cn2)C(C)(C)C)cc1 [Formula 62] : 500 to 1000 nM

----------
# test_system: CDK12 (Homo sapiens, UniProt Q9NYV4)
# Sequence (Q9NYV4 whole entry): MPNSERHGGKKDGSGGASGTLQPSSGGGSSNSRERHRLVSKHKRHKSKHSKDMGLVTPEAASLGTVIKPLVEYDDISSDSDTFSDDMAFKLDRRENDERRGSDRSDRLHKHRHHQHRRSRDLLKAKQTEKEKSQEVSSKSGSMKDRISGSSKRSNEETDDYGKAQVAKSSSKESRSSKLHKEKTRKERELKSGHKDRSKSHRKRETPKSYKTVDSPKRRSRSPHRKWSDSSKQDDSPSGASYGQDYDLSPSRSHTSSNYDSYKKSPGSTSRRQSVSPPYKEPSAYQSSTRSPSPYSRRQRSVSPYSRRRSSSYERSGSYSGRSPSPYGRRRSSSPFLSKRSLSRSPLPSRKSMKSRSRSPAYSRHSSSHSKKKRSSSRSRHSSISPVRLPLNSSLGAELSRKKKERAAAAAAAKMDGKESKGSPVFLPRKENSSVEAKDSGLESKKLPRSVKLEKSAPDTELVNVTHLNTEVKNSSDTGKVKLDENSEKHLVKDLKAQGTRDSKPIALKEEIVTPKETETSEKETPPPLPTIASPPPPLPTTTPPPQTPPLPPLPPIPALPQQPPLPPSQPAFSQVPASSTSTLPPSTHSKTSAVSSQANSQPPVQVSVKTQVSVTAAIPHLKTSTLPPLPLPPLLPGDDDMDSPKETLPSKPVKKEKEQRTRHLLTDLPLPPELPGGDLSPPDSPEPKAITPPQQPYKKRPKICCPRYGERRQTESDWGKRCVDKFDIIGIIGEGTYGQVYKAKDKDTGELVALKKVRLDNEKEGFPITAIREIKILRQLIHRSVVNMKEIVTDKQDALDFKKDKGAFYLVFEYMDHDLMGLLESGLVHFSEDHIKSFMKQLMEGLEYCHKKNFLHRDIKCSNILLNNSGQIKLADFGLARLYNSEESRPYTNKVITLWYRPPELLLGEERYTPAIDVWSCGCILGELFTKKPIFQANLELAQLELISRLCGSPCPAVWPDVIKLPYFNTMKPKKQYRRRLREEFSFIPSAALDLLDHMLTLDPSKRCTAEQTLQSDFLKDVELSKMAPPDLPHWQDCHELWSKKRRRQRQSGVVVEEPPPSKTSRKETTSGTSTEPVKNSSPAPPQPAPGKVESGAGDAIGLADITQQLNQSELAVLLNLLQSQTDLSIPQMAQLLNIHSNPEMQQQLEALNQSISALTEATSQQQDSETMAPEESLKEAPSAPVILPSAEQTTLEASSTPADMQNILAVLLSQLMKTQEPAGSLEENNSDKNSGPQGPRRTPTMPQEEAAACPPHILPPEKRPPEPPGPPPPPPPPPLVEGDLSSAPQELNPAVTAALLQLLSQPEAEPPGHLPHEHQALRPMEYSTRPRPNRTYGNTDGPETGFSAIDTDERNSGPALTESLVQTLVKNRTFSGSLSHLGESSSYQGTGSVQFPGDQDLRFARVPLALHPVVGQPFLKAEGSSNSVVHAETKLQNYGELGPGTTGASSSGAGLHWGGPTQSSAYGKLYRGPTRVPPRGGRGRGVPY
# Sequence (O75909 whole entry partner): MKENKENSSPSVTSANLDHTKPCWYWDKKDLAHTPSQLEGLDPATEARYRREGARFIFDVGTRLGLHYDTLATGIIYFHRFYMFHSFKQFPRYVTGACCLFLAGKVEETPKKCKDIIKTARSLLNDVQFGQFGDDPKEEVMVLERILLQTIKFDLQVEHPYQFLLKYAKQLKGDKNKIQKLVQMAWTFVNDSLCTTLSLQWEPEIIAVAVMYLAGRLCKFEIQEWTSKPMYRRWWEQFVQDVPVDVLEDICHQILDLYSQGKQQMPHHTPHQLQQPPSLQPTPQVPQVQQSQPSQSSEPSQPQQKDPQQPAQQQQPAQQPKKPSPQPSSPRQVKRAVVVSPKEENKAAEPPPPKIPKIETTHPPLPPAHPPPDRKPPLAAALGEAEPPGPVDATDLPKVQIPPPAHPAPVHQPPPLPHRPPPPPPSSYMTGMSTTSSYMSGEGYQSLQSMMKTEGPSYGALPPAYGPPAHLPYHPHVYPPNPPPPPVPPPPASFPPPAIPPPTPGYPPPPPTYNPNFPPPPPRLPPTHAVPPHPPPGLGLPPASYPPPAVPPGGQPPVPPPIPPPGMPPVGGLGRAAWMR
# assay_protocol: Western blot degradation of CDK12 (Example 3)
# Assay type: cell-based
# Parameters: degradation of CDK12/13 protein in leukemia cells KASUMI-1, MV4-11, and Jurkat; endogenous in cells
# condition_parameters: DC50 classes; cell line not given; read-out: CDK12 degradation Activity
Measured DC50 values are reported for all entries that follow.

Check out these entries, answers already filled in.
CC(=O)N(c1ccc(-c2cnn(C3CCN(c4ccc5c(c4)C(=O)N(C4CCC(=O)NC4=O)C5=O)C3)c2)cc1)[C@H]1CC[C@H](Nc2ncc3ccccc3n2)CC1 (stereo partly drawn)    3 to 10 µM
CC(=O)N(c1ccc(-c2cnc(N3CCN(CC(=O)N[C@H](C(=O)N4C[C@H](O)C[C@H]4C(=O)N[C@@H](C)c4ccc(-c5scnc5C)cc4)C(C)(C)C)CC3)nc2)cc1)[C@H]1CC[C@H](Nc2ncc3ccccc3n2)CC1    < 0.1 µM

Okay, now this compound:
// recorded DC50 for CC(=O)N(c1ccc(-c2cnc(N3CCC(C(=O)N[C@H](C(=O)N4C[C@H](O)C[C@H]4C(=O)N[C@@H](C)c4ccc(-c5scnc5C)cc4)C(C)(C)C)CC3)nc2)cc1)[C@H]1CC[C@H](Nc2ncc3ccccc3n2)CC1 : 1 to 3 µM

----------
# test_system: CDK12 (Homo sapiens)
# assay_protocol: Western blot degradation of CDK12 (Example 2)
# Assay type: cell-based
# Design: degradation of CDK12/13 protein in leukemia cells KASUMI-1, MV4-11, and Jurkat; endogenous in cells
# condition_parameters: DC50 classes; cell line not given; read-out: CDK12 degradation Activity
parameter_measured: DC50

Check out these entries, answers already filled in.
Cc1ncsc1-c1ccc([C@H](C)NC(=O)[C@@H]2C[C@@H](O)CN2C(=O)[C@@H](NC(=O)N2CCC3(CC2)CCN(c2ccc(N(C(=O)NCc4ccccc4)[C@H]4CC[C@H](Nc5ccc(C#N)cn5)CC4)cc2)CC3)C(C)(C)C)cc1    3 to 10 µM
Cc1ncsc1-c1ccc([C@H](C)NC(=O)[C@@H]2C[C@@H](O)CN2C(=O)[C@@H](NC(=O)CN2CCN(c3ncc(-c4ccc(N(C(=O)NCc5ccccc5)[C@H]5CC[C@H](Nc6ccc(C#N)cn6)CC5)cc4)cn3)CC2)C(C)(C)C)cc1 [Formula 80]    < 0.1 µM

// recorded DC50 for Cc1ncsc1-c1ccc([C@H](C)NC(=O)[C@@H]2C[C@@H](O)CN2C(=O)[C@@H](NC(=O)CC2CCN(c3ccc(-c4ccc(N(C(=O)NCc5ccccc5)[C@H]5CC[C@H](Nc6ccc(C#N)cn6)CC5)cc4)cn3)C2)C(C)(C)C)cc1 (some centres unmarked) : 0.5 to 1 µM

// recorded DC50 for N#Cc1ccc(N[C@H]2CC[C@H](N(C(=O)NCc3ccccc3)c3ccc(-c4ccc(OCCOCCNc5cccc6c5C(=O)N(C5CCC(=O)NC5=O)C6=O)nc4)cc3)CC2)nc1 (some centres unmarked) : 1 to 3 µM

// recorded DC50 for Cc1ncsc1-c1ccc([C@H](C)NC(=O)[C@@H]2C[C@@H](O)CN2C(=O)[C@@H](NC(=O)COCCOCCOCCN2CCN(c3ccc(N(C(=O)NCc4ccccc4)[C@H]4CC[C@H](Nc5ccc(C#N)cn5)CC4)cc3)CC2)C(C)(C)C)cc1 : 3 to 10 µM
